# assayedSystem: T1, mCry3A insecticidal protein (Bacillus thuringiensis subsp. …, UniProt P0A379 48-644, limits assumed)
# T1 construct: also called modified Cry3A
# T1 sequence: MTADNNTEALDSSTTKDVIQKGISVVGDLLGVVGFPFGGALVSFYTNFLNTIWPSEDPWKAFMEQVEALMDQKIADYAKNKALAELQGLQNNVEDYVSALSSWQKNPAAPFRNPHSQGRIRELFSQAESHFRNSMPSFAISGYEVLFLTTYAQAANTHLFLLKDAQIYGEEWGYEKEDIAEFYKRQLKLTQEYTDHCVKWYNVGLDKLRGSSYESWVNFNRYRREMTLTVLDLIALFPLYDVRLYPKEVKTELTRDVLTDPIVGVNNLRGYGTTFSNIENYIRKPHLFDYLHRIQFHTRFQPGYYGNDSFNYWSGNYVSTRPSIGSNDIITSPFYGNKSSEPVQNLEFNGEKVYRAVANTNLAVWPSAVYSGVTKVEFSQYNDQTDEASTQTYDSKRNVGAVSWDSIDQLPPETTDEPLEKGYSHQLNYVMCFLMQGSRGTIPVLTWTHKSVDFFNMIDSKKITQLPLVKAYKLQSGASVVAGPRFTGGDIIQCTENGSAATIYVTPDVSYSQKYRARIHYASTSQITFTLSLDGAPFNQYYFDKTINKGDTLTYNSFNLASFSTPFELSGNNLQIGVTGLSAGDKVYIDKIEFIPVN
# measurementNotes: direct ELISA: mCry3A coated at 1 ug/ml, RGS-His HRP detection
readoutName: Binding (OD 450 nm)
Please format your answer as a value with the unit trailing.

These recorded examples may help you get a feel for the data.
[
  {
    "binder": "synNAPS9 variant M33A (designed binder) RGSHHHHHHGSMVKVKFAQGGEEKEVDTSKIYRVPRHGKIVFFAYDDNGKGGFGHVTEKDAPKELLDMLARAEREKK",
    "reading": "2.8 OD 450 nm"
  },
  {
    "binder": "synNAPS9 variant Q8A (designed binder) RGSHHHHHHGSMVKVKFAAGGEEKEVDTSKIYRVPRHGKIVFFMYDDNGKGGFGHVTEKDAPKELLDMLARAEREKK",
    "reading": "2.8 OD 450 nm"
  },
  {
    "binder": "synNAPS-9 ligand (designed binder) MVKVKFAQGGEEKEVDTSKIYRVPRHGKIVFFMYDDNGKGGFGHVTEKDAPKELLDMLARAEREKK",
    "reading": "2.5 OD 450 nm"
  },
  {
    "binder": "synNAPS9 variant H26A (designed binder) RGSHHHHHHGSMVKVKFAQGGEEKEVDTSKIYRVPRAGKIVFFMYDDNGKGGFGHVTEKDAPKELLDMLARAEREKK",
    "reading": "1.8 OD 450 nm"
  },
  {
    "binder": "synNAPS9 variant G9A (designed binder) RGSHHHHHHGSMVKVKFAQAGEEKEVDTSKIYRVPRHGKIVFFMYDDNGKGGFGHVTEKDAPKELLDMLARAEREKK",
    "reading": "1.5 OD 450 nm"
  }
]

Batch: Binding (OD 450 nm) for all items listed.
1. synNAPS9 variant Y21A (designed binder) RGSHHHHHHGSMVKVKFAQGGEEKEVDTSKIARVPRHGKIVFFMYDDNGKGGFGHVTEKDAPKELLDMLARAEREKK
2. synNAPS9 variant T46A (designed binder) RGSHHHHHHGSMVKVKFAQGGEEKEVDTSKIYRVPRHGKIVFFMYDDNGKGGFGHVAEKDAPKELLDMLARAEREKK

Reply |
1: 1.8 OD 450 nm; 2: 2.8 OD 450 nm
